System: KM12 colon
Procedure Text: NCI tumour cell line growth inhibition, 48 h; in the data active = GI50 below about 0.43 µM; inactive = the rest
Write down the outcome that applies. Available outcomes: yes (1) = active, no (0) = inactive

*Q* # fetch the recorded call for NC(CSC(c1ccccc1)(c1ccccc1)c1ccccc1)C(=O)NCC(=O)O (stereo not given) here
*A* no (0)

*Q* Call for entry CCN1C(=O)/C(=C/c2c(Cl)[nH]c3cc(C)c(OC)cc23)c2ccccc21 :
*A* no (0)

*Q* Call for entry CC(C)CNc1nc(-c2ccccc2Cl)nc2ccccc12 :
*A* no (0)

*Q* Which outcome did this test record for the molecule COc1cc(Nc2ncccc2C(=O)Nc2nc3ccc(F)cc3s2)cc(OC)c1OC ?
*A* no (0)

*Q* Any idea what this test logged for Cc1cn(-c2cc(NC(=O)c3cccc(C#Cc4cccc5[nH]nc(N)c45)c3)cc(C(F)(F)F)c2)cn1 ?
*A* no (0)

*Q* Please share the test call associated with COc1ccc2c(c1)OC1=C(C(=O)OC1)C2c1cc(OC)c2c(c1)OCCO2 (stereo not given) .
*A* yes (1)

*Q* Please let me know the test result on file for COC(=O)c1ccc2[nH]c(O)c(C(=Nc3ccc(N(C)C(=O)CN4CCN(C)CC4)cc3)c3ccc4c(c3)OCO4)c2c1 .
*A* yes (1)

*Q* State the result this test recorded for COc1ccc2c(c1)C(=O)/C(=C/c1cccc(OCC(=O)c3ccccc3)c1)O2 .
*A* no (0)

*Q* For CCOc1cc(C(C)(C)C)ccc1C1=N[C@H](c2ccc(Cl)cc2)[C@H](c2ccc(Cl)cc2)N1C(=O)N1CCN(CC#Cc2cccc3c2CN([C@@H]2CCC(=O)NC2=O)C3=O)CC1 , which call appears in the assay record?
*A* no (0)

*Q* Recorded test outcome, item N/N=C\c1c2ccccc2c(=O)n2c1oc1ccccc12
*A* no (0)

*Q* // return assay outcome for Cc1ccc(C2=C(c3ccc(C)cc3)C3(c4ccc(C)cc4)C4C(=O)OC(=O)C4C2(c2ccc(C)cc2)S3=O)cc1 (stereo not given)
*A* no (0)

*Q* Query: recorded result category for CC/C=C\C[C@H]1CC=C2C(=O)C=C[C@@H]2CC=CCCCC(=O)O[C@@H](CCCCC)CC=C2C(=O)C=C[C@@H]2CC=CCCCC(=O)O[C@@H](CCCCC)CC=C2C(=O)C=C[C@@H]2CC=CCCCC(=O)O[C@@H](CCCCC)CC=C2C(=O)C=C[C@@H]2CC=CCCCC(=O)O1 in this test
*A* no (0)

====

Reported TGI is given for each of the following molecules.
System: RPMI-8226 leukemia
Procedure Text: NCI tumour cell line growth inhibition, 48 h
Give just the numeric value; µM need not be written.

Cc1n(CC(C)C)c2c([n+]1C)C(=O)c1ccccc1C2=O    8.37
COC(=O)[C@@H]1C=C[C@H](OC2OC(COC(C)=O)C(OC(C)=O)C(OC(C)=O)C2OC(C)=O)n2c(=O)n(-c3ccccc3)c(=O)n21 (stereo partly specified)    6.05
C#CCn1c(=O)c(I)cn(/C(=C/C(=O)OCC)C(=O)OCC)c1=O    2.33

Read the next record carefully.
TGI reported for this molecule NC(N)=NS(=O)(=O)c1ccc(NNc2c3ccccc3nc3ccccc23)cc1 : 44.9

====

Entries and their TGI values follow.
Tested on: TK-10 renal
Procedure Text: NCI tumour cell line growth inhibition, 48 h

Worked set:
C[C@]12CC=CC(=O)[C@@]1(C)CCC(=O)C2    > 100 µM
Cc1cc(N(CC(C)Br)CC(C)Br)ccc1N=Nc1ccccc1C(=O)O (stereo unspecified)    24.4 µM
O=C(NC1=C(Cl)C(=O)c2ccccc2C1=O)c1ccccc1    52.5 µM
O=C(O)CSCCc1ccccc1    > 100 µM
CC[C@@H](C)[C@H](NC(=O)[C@H](Cc1ccccc1)NCC(F)(F)F)C(=O)OC(C)(C)C    > 100 µM

Lookup result for C=C(C)C1CC2(C)C(C)CC(O)CC2C(OC(=O)C=C(C)C)C1O (stereo unspecified) ; measured TGI: > 100 µM

====

System: HCT-116 colon
Procedure Text: NCI tumour cell line growth inhibition, 48 h
The reader will find reported TGI values listed item by item below.

Known TGI results, listed for orientation:
OCC12C=CC(C1)c1ccccc12 (stereo not drawn)    > 100 µM
COc1ccc2nc3cc(Cl)ccc3c(Sc3ccc([N+](=O)[O-])cc3C)c2c1    > 100 µM
CSc1c(C(=O)Nc2ccccc2)c(N)n(N)c(=O)c1C#N    > 100 µM
O=C1NC(=S)S/C1=C/c1ccc2c(c1)OCO2    > 100 µM
CC(C)CCNC(=O)c1ccc(CNC(=O)/C=C/c2cccc(Oc3ccccc3)c2)cc1    > 100 µM

For reference, reported TGI for COC1OC(CS(=O)(=O)O)C(O)C(O)C1O (stereo not drawn) stands at > 100 µM

Reported TGI for COc1cc(C2c3cc4c(cc3OC(C)(N3CCCC3)C2C)OCO4)cc(OC)c1OC (stereo not drawn) was 16.5 µM

Notebook: O=S(=O)(O)c1ccc(N=Nc2ccc3c(S(=O)(=O)O)cccc3c2O)c2ccccc12 , TGI read as > 100 µM

Consider CN(C)CCOc1ccc([N+](=O)[O-])c2cccnc12 . Its measured TGI is > 100 µM

The value of TGI measured for the compound CC(=O)c1ccc(NC(=O)/C(CC(=O)c2sc(-c3cccnc3)nc2C)=N/NC(N)=O)cc1 turned out to be 42.5 µM

Quick note, TGI for CC(=O)OCC1OC(N2C(c3ccccc3)=CC(c3cccs3)C(C#N)=C2S)C(OC(C)=O)C(OC(C)=O)C1OC(C)=O (stereo not drawn) landed at > 100 µM

Recorded result, O=C(O)CO[C@@]12C#C/C=C\C#C[C@@H]3N(C(=O)Oc4ccccc4)c4ccccc4[C@]14O[C@@]34CCC2 , TGI: > 100 µM

Field TGI (entry N#C/C(=C/c1cccc(Oc2ccccc2)c1)c1ccccc1 ) reads > 100 µM

Data point: Cc1cccc(Cl)c1NCC(O)CN1CCN(C)CC1 (stereo not drawn) ; TGI = > 100 µM

====

System: HCC-2998 colon
Procedure Text: NCI tumour cell line growth inhibition, 48 h
Value Kind: GI50

CS(=O)(=O)CCNCc1coc(-c2ccc3ncnc(Nc4ccc(OCc5ccccc5)cc4)c3c2)c1    4.16 µM
Cc1cc(Cl)ccc1OCC(=O)Nc1nc2c(Cl)cccc2s1    > 100 µM
O=C(/C=C/c1ccccc1)Nc1ncc(Cc2ccccc2Cl)s1    0.361 µM
CC/C=C\C[C@H]1CC=C2C(=O)C=C[C@@H]2CC=CCCCC(=O)O[C@@H](CCCCC)CC=C2C(=O)C=C[C@@H]2CC=CCCCC(=O)O[C@@H](CCCCC)CC=C2C(=O)C=C[C@@H]2CC=CCCCC(=O)O[C@@H](CCCCC)CC=C2C(=O)C=C[C@@H]2CC=CCCCC(=O)O1    1.86 µM
Nc1ncc(-c2cnn(C3CCNCC3)c2)cc1-c1nc2cc(Cl)ccc2o1    1.47 µM

Record CN(c1ccc(NC(=O)Nc2c(Cl)cccc2Cl)cc1)c1ccnc(Nc2cccc(CS(C)(=O)=O)c2)n1 , field GI50: 4.78 µM

Measured GI50 of C=C1c2c(C)nn(-c3ccc(C#CCOC4OC(CO)C(O)C(O)C4O)cc3)c2N(C)C23C[C@H]1C1(C)c4c(C)nn(-c5ccc(C#CCOC6OC(CO)C(O)C(O)C6O)cc5)c4N(C)C(C)(C[C@H]12)C3 (some centres not stated) : 1.57 µM

====

Test system: OVCAR-5 ovarian
Procedure Text: NCI tumour cell line growth inhibition, 48 h
Value Kind: TGI (µM)
The reply should be a number in µM, with the unit left off.

CC1(O)C(C)(O)C2(C)O[Te]3(OC12C)OC1(C)C(C)(O)C(C)(O)C1(C)O3 (centres undefined)    29.4

Okay, next one:
CC(C)(C)C1CCC(=O)/C(=C/CC2CC(=O)N(c3ccccc3)C(=O)C2)C1 (centres undefined) has a reported TGI of 41.6

====

System: SR leukemia
Procedure Text: NCI tumour cell line growth inhibition, 48 h
Value Kind: TGI

Here is how some compounds turned out for TGI.
C=CCn1c(N)c(C#N)c(C#N)c1CCC    > 100 µM
COc1cc(NS(=O)(=O)c2ccc(C)cc2)c2nccnc2c1    > 100 µM
Nc1cc([N+](=O)[O-])ccc1C(=O)N1CCC[C@H]1CO    > 100 µM

The compound listed as NC(CSC(c1ccccc1)(c1ccccc1)c1ccccc1)C(=O)NCC(=O)O (stereo unspecified) shows TGI equal to 38.2 µM

====

As shown below, each of these compounds has a reported TGI value.
Tested on: NCI-H522 lung
Procedure Text: NCI tumour cell line growth inhibition, 48 h
Return type: number; implicit unit µM.

COc1ccc([C@@]2(O)c3c(ccc(O)c3OC)[C@H]2OC)c(OC)c1    85.4

Cn1c(Cl)c(/C=C2/C(=O)Nc3ccccc32)c2ccccc21 has a reported TGI of 22.4
